Target: Progesterone receptor (Homo sapiens, UniProt P06401); further: assay procedure not described here
Sequence (P06401 whole entry): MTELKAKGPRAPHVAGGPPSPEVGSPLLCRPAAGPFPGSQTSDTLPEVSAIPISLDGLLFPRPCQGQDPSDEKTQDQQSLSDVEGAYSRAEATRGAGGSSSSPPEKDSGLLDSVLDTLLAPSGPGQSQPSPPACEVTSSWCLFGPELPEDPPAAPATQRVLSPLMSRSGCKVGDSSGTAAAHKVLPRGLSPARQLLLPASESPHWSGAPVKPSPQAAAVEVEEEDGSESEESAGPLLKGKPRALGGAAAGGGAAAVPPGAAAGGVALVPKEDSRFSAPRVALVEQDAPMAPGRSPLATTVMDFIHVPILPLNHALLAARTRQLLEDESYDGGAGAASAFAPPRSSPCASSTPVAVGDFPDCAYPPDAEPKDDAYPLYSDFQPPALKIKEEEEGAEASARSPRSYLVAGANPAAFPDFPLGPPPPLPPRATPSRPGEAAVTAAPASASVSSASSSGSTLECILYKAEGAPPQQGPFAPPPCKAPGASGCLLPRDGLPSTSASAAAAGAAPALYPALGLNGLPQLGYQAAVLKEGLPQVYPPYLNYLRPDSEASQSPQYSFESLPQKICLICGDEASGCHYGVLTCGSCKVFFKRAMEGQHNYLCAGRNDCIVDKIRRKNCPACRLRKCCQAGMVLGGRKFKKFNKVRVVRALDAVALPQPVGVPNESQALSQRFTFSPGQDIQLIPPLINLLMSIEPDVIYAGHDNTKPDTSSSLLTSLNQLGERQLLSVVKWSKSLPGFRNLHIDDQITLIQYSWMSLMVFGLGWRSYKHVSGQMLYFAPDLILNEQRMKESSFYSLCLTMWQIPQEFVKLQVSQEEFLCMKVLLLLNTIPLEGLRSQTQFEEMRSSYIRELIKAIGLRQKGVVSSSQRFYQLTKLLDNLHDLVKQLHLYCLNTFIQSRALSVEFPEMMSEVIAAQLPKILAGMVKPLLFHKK
Catalogue of AC50 readings, one per entry.
quantity measured: AC50

{"compound": "Cn1c(CCCC(=O)O)nc2cc(N(CCCl)CCCl)ccc21", "experimental target": "Progesterone receptor (Homo sapiens, UniProt P06401)", "measured value": "> 30 µM"}
{"compound": "N=C(N)NC(=O)c1nc(Cl)c(N)nc1N [AMILORIDE]", "experimental target": "Progesterone receptor (Homo sapiens, UniProt P06401)", "measured value": "> 30 µM"}
{"compound": "C[C@@H](O)[C@H]1C(=O)N2C(C(=O)O)=C(S[C@@H]3CN[C@H](C(=O)Nc4cccc(C(=O)O)c4)C3)[C@H](C)[C@H]12", "experimental target": "Progesterone receptor (Homo sapiens, UniProt P06401)", "measured value": "> 30 µM"}
{"compound": "O=C(O)[C@@H](S)[C@@H](S)C(=O)O", "experimental target": "Progesterone receptor (Homo sapiens, UniProt P06401)", "measured value": "> 30 µM"}
{"compound": "CC1=C(C/C=C(\\C)CCC[C@H](C)CCC[C@H](C)CCCC(C)C)C(=O)c2ccccc2C1=O", "experimental target": "Progesterone receptor (Homo sapiens, UniProt P06401)", "measured value": "> 30 µM"}
{"compound": "COc1cccc2c1C(=O)c1c(O)c3c(c(O)c1C2=O)C[C@@](O)(C(=O)CO)C[C@@H]3O[C@H]1C[C@H](N)[C@H](O)[C@H](C)O1", "experimental target": "Progesterone receptor (Homo sapiens, UniProt P06401)", "measured value": "> 30 µM"}
{"compound": "C#C[C@]1(OC(C)=O)CC[C@H]2[C@@H]3CCC4=CC(=O)CC[C@@H]4[C@H]3CC[C@@]21C [NORETHINDRONE ACETATE]", "experimental target": "Progesterone receptor (Homo sapiens, UniProt P06401)", "measured value": "0.033 µM"}
{"compound": "COc1ccc(C(=O)c2ccccc2)c(O)c1", "experimental target": "Progesterone receptor (Homo sapiens, UniProt P06401)", "measured value": "25.7 µM"}

* * *

Target protein (sequence): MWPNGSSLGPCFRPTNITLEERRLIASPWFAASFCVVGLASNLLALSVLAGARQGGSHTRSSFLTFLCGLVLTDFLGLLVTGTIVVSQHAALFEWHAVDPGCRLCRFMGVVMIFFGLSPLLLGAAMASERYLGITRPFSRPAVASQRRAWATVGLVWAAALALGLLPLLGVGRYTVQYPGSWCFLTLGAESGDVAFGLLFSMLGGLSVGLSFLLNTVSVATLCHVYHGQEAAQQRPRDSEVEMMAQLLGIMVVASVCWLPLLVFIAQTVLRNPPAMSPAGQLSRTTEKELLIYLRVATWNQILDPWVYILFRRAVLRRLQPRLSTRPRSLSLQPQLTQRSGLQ
quantity measured: AC50

{"molecule": "CCOC(=O)O[C@]1(C(=O)COC(=O)CC)CC[C@H]2[C@@H]3CCC4=CC(=O)C=C[C@]4(C)[C@H]3[C@@H](O)C[C@@]21C [PREDNICARBATE]", "measured value": "> 10 µM"}
{"molecule": "CCC(=O)[C@@]1(C)[C@H](C)C[C@H]2[C@@H]3CCC4=CC(=O)C=C[C@]4(C)[C@H]3[C@@H](O)C[C@@]21C [RIMEXOLONE]", "measured value": "> 10 µM"}
{"molecule": "C[C@]12CCC(=O)C=C1CC[C@H]1[C@@H]3CC[C@](O)(C(=O)CO)[C@@]3(C)C[C@H](O)[C@@]12F [FLUDROCORTISONE]", "measured value": "> 30 µM"}

* * *

Target or system Kappa-type opioid receptor (Homo sapiens): recorded AC50 listed per item. Further: assay procedure not described here.
quantity measured: AC50 (µM)

{"compound": "N=C(N)NC(=O)Cc1c(Cl)cccc1Cl", "experimental target": "Kappa-type opioid receptor (Homo sapiens)", "limit operator": "=", "measured value": 5.95}
{"compound": "CN(Cc1ccc(C(C)(C)C)cc1)Cc1cccc2ccccc12", "experimental target": "Kappa-type opioid receptor (Homo sapiens)", "limit operator": ">", "measured value": 10}
{"compound": "O=C(O)c1nn(Cc2ccc(Cl)cc2Cl)c2ccccc12", "experimental target": "Kappa-type opioid receptor (Homo sapiens)", "limit operator": ">", "measured value": 30}
{"compound": "Cc1cccc(Nc2ccncc2S(=O)(=O)NC(=O)NC(C)C)c1 [TORSEMIDE]", "experimental target": "Kappa-type opioid receptor (Homo sapiens)", "limit operator": ">", "measured value": 10}
{"compound": "OCCOCCN1CCN(C(c2ccccc2)c2ccc(Cl)cc2)CC1 (stereo not given) [HYDROXYZINE]", "experimental target": "Kappa-type opioid receptor (Homo sapiens)", "limit operator": "=", "measured value": 8.65}

* * *

Molecular target: Beta-2 adrenergic receptor (Homo sapiens, UniProt P07550); further: assay procedure not described here
Sequence (P07550 whole entry): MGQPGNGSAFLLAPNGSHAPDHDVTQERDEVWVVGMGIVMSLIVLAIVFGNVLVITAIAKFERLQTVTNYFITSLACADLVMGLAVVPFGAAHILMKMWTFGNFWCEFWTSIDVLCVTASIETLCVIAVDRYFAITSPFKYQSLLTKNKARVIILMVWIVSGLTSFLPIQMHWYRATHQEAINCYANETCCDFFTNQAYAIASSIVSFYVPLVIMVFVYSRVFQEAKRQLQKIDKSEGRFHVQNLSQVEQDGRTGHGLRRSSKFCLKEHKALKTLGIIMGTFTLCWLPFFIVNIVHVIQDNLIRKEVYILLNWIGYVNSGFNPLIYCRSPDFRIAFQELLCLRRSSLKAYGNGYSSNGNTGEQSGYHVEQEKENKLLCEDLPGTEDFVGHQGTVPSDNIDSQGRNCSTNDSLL
Where a SMILES comes first, the peptide text is derived from it.
Some compounds, each annotated with its measured AC50.
quantity measured: AC50

{"compound": "CC(=O)Oc1cccc2c1C(=O)c1c(OC(C)=O)cc(C(=O)O)cc1C2=O [DIACEREIN]", "quantity measured": "AC50", "measured value": "> 30 µM"}
{"compound": "CN(C)CCOC(=O)C(c1ccccc1)C1(O)CCCC1 (centres undefined) [CYCLOPENTOLATE]", "quantity measured": "AC50", "measured value": "> 10 µM"}
{"compound": "CCOC(=O)[C@H](CCc1ccccc1)N[C@@H](C)C(=O)N1Cc2ccccc2C[C@H]1C(=O)O", "quantity measured": "AC50", "measured value": "> 10 µM"}
{"compound": "CCN(C(C)=O)c1cccc(-c2ccnc3c(C#N)cnn23)c1 [ZALEPLON]", "quantity measured": "AC50", "measured value": "> 30 µM"}
{"compound": "CC(=O)OCC1=C(C(=O)O)N2C(=O)[C@@H](NC(=O)CSc3ccncc3)[C@H]2SC1 [CEPHAPIRIN]", "quantity measured": "AC50", "measured value": "> 10 µM"}
{"compound": "CCOC(=O)Nc1ccc(NCc2ccc(F)cc2)nc1N [FLUPIRTINE]", "quantity measured": "AC50", "measured value": "> 30 µM"}
{"compound": "Nc1cc(N2CCCCC2)nc(N)[n+]1[O-] [MINOXIDIL]", "quantity measured": "AC50", "measured value": "> 30 µM"}
{"compound": "NS(=O)(=O)c1ccc(N2CCCCS2(=O)=O)cc1", "quantity measured": "AC50", "measured value": "> 30 µM"}
{"compound": "CCCCOC(=O)C(=O)Nc1cccc(-c2nnn[nH]2)c1 [TAZANOLAST]", "quantity measured": "AC50", "measured value": "> 30 µM"}
{"compound": "CCCCOC(=O)c1ccc(N)cc1 [BUTAMBEN]", "quantity measured": "AC50", "measured value": "> 30 µM"}
{"compound": "CN(C)CCCC1(c2ccc(F)cc2)OCc2cc(C#N)ccc21 (centres undefined) [CITALOPRAM]", "quantity measured": "AC50", "measured value": "> 10 µM"}
{"compound": "COc1cccc2c1C(=O)c1c(O)c3c(c(O)c1C2=O)C[C@@](O)(C(=O)CO)C[C@@H]3O[C@H]1C[C@H](N)[C@H](O)[C@H](C)O1 [DOXORUBICIN]", "quantity measured": "AC50", "measured value": "> 10 µM"}
{"compound": "NCCCCCC(=O)O [AMINOCAPROIC ACID]", "quantity measured": "AC50", "measured value": "> 10 µM"}
{"compound": "Cc1ccc(S(=O)(=O)NC(=O)N[C@H]2[C@H]3CC[C@@](C)([C@H]2O)C3(C)C)cc1 [GLIBORNURIDE]", "quantity measured": "AC50", "measured value": "> 30 µM"}
{"compound": "CC1=C(CC(=O)O)c2cc(F)ccc2/C1=C\\c1ccc([S+](C)[O-])cc1 (centres undefined)", "quantity measured": "AC50", "measured value": "> 10 µM"}
{"compound": "CCC1(C)CC(=O)NC1=O (centres undefined) [ETHOSUXIMIDE]", "quantity measured": "AC50", "measured value": "> 10 µM"}
{"compound": "CNC1(C)C2CCC(C2)C1(C)C (centres undefined) [MECAMYLAMINE]", "quantity measured": "AC50", "measured value": "> 10 µM"}
{"compound": "CN1C(=O)CN=C(c2ccccc2F)c2cc([N+](=O)[O-])ccc21 [FLUNITRAZEPAM]", "quantity measured": "AC50", "measured value": "> 10 µM"}
{"compound": "C[C@]12CCC(=O)C=C1C=C[C@@H]1[C@@H]2CC[C@@]2(C)[C@H]1CC[C@@]21CCC(=O)O1 [CANRENONE]", "quantity measured": "AC50", "measured value": "> 30 µM"}
{"compound": "O=C(c1ccccc1)c1ccc2n1CCC2C(=O)O (centres undefined) [KETOROLAC]", "quantity measured": "AC50", "measured value": "> 10 µM"}
{"compound": "Cc1nnc2n1-c1ccc(Cl)cc1C(c1ccccc1)=NC2 [ALPRAZOLAM]", "quantity measured": "AC50", "measured value": "> 10 µM"}
{"compound": "CC(C)C[C@H](NC(=O)[C@H](Cc1ccccc1)NC(=O)c1cnccn1)B(O)O [BORTEZOMIB]", "quantity measured": "AC50", "measured value": "> 30 µM"}
{"compound": "C[C@H](N)C(=O)N[C@@H](CCC(N)=O)C(=O)O [ALANYL GLUTAMINE] (H-Ala-Gln-OH)", "quantity measured": "AC50", "measured value": "> 30 µM"}
{"compound": "CCC1(c2ccccc2)C(=O)NCNC1=O [PRIMIDONE]", "quantity measured": "AC50", "measured value": "> 10 µM"}
{"compound": "CCOC(=O)C1=C(C)NC(C)=C(C(=O)OC)C1c1cccc(Cl)c1Cl (centres undefined) [FELODIPINE]", "quantity measured": "AC50", "measured value": "> 10 µM"}
{"compound": "CN1CCC(=C2c3ccccc3CC(=O)c3sccc32)CC1 [KETOTIFEN]", "quantity measured": "AC50", "measured value": "> 10 µM"}
{"compound": "O=C(C[S+]([O-])Cc1ccco1)NC/C=C\\COc1cc(CN2CCCCC2)ccn1 (centres undefined) [LAFUTIDINE]", "quantity measured": "AC50", "measured value": "> 10 µM"}
{"compound": "CC(=O)Oc1ccccc1C(=O)O [ASPIRIN]", "quantity measured": "AC50", "measured value": "> 10 µM"}
{"compound": "Clc1ccc(COC(Cn2ccnc2)c2ccc(Cl)cc2Cl)c(Cl)c1 (centres undefined) [MICONAZOLE]", "quantity measured": "AC50", "measured value": "> 10 µM"}
{"compound": "Oc1cc(O)c2c(c1)O[C@H](c1ccc(O)c(O)c1)[C@@H](O)C2 [CIANIDANOL]", "quantity measured": "AC50", "measured value": "> 10 µM"}
{"compound": "CC(C(=O)O)c1ccc(C(=O)c2ccccc2)s1 (centres undefined) [TIAPROFENIC ACID]", "quantity measured": "AC50", "measured value": "> 10 µM"}
{"compound": "Nc1nnc(-c2cccc(Cl)c2Cl)c(N)n1 [LAMOTRIGINE]", "quantity measured": "AC50", "measured value": "> 10 µM"}
{"compound": "C[C@@H](Cc1ccccc1)N(C)Cc1ccccc1 [BENZPHETAMINE]", "quantity measured": "AC50", "measured value": "> 10 µM"}
{"compound": "O=C(O)c1ccc2nc(-c3cc(Cl)cc(Cl)c3)oc2c1", "quantity measured": "AC50", "measured value": "> 30 µM"}
{"compound": "CN(Cc1ccc(C(C)(C)C)cc1)Cc1cccc2ccccc12 [BUTENAFINE]", "quantity measured": "AC50", "measured value": "> 10 µM"}
{"compound": "CC1CC(OC(=O)C(O)c2ccccc2)CC(C)(C)C1 (centres undefined) [CYCLANDELATE]", "quantity measured": "AC50", "measured value": "> 10 µM"}
{"compound": "O=C1CN=C(c2ccccc2Cl)c2cc([N+](=O)[O-])ccc2N1 [CLONAZEPAM]", "quantity measured": "AC50", "measured value": "> 10 µM"}
{"compound": "Cc1ccc(-c2ncc(Cl)cc2-c2ccc(S(C)(=O)=O)cc2)cn1 [ETORICOXIB]", "quantity measured": "AC50", "measured value": "> 10 µM"}
{"compound": "CN(C)CCC(O)(c1ccccc1)c1ccccc1Cl (centres undefined) [CHLOPHEDIANOL]", "quantity measured": "AC50", "measured value": "> 10 µM"}

These entries and their values trace back to ChEMBL document CHEMBL5291721.
